Biological target: T1, recombinant cynomolgus monkey PD-L1 with a C-terminal myc-myc-hexahistidine tag (cynomolgus monkey (Macaca fascicularis))
T1 construct: also called MfPD-L1-MMH; MfPD-L1-MMH Monomer
T1 sequence (chain, as listed by the source limits assumed): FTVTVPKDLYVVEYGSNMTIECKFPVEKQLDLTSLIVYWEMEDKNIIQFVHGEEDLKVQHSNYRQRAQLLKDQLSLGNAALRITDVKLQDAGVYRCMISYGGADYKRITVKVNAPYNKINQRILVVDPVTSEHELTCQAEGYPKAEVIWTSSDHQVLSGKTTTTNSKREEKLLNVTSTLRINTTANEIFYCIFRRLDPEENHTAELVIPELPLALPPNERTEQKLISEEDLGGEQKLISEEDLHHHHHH
Test: SPR (Biacore), mAb captured, 37C
measuredProperty: koff

binder="H1H9336P (antibody, human IgG1, V domains shown) VH: EVQLVESGGGLVQPGRSLRLSCAASGFTFDDFAMHWVRQAPGKGLEWVSGISWTGGNMDYANSVKGRFTISREDAKNSLYLQMNSLRAADTALYYCVKDIRGIVATGGAFDIWGRGTMVTVSS VL: DIQMTQSPSSLSASVGDRVTISCRASQTISTYLNWFQQKPGKAPKLLIYVVSSLQSGVPSRFSGSGSGTDFTLTISSLQPEDFATYYCQQSYSTPFTFGPGTKVDIK" resultvalue="0.00125 s⁻¹"
binder="H2aM8321N (antibody, mouse IgG2, V domains shown, also called H2M8321N) VH: EERLVESGGDLVQPGGSLRLSCAASGITVGTNYMNWVRQAPGKGLEWVSVISSGGNTHYADSVKGRFIMSRQTSKNTLYLQMNSLETEDTAVYYCARGIRGLDVWGQGTMVTVSS VL: DIQMTQSPSSLSASVGDRVTITCRASQSMSSYLNWYQQKPGRAPKLLIFAASSLQSGVPSRFSGSGSGTDFTLTISSLQPEDFATYYCQQSYSTPPITFGQGTRLEIK" resultvalue="0.00816 s⁻¹"
